Tested on: HCT-116
Test: Anticancer activity against human HCT-116 cells assessed as cell growth inhibition measured after 48 hrs by SRB assay
Type: functional
Property Label: GI50

> print(dat)
                                   compound  test.result
1  COC(=O)C[C@@H]1NC(=O)c2cc(Oc3cc(Cl)cc(Cl)c3)c(NC(=O)c3cc(OC)c(OC)c(OC)c3)cc2NC1=O      > 50 µM

Missing value: GI50, HCT-116, entry COC(=O)C[C@@H]1NC(=O)c2cc(Oc3ccc(F)cc3)c(NC(=O)c3cc(OC)c(OC)c(OC)c3)cc2NC1=O . Fill in?
> 50 µM

Missing value: GI50, HCT-116, entry CCOC(=O)C1NC(=O)c2cc(Oc3cc(C)cc(C)c3)c(NC(=O)c3cc(OC)c(OC)c(OC)c3)cc2NC1=O (centres undefined) . Fill in?
> 50 µM

Missing value: GI50, HCT-116, entry COC(=O)C[C@@H]1NC(=O)c2cc(OCc3ccccc3)c(NC(=O)c3cc(OC)c(OC)c(OC)c3)cc2NC1=O . Fill in?
> 50 µM

----------
GI50: recorded values
System: HCT-116
Assay: Anticancer activity against human HCT-116 cells assessed as cell growth inhibition measured after 48 hrs by SRB assay
Type: functional

> print(dat)
                                 cpd.smiles  property.label  test.result
1  COC(=O)C[C@@H]1NC(=O)c2cc(Oc3cc(C)cc(C)c3)c(NC(=O)c3ccc(OC)c(OC)c3OC)cc2NC1=O            GI50      > 50 µM
2  COC(=O)C[C@@H]1NC(=O)c2cc(Oc3ccccc3)c(NC(=O)c3cc(OC)c(OC)c(OC)c3)cc2NC1=O            GI50      > 50 µM
3  CCN(CC)C(=O)C[C@H]1C(=O)Nc2cc(NC(=O)c3cc(OC)c(OC)c(OC)c3Br)c(Oc3cc(C)cc(C)c3)cc2C(=O)N1C            GI50   < 0.005 µM
4  COC(=O)C[C@@H]1NC(=O)c2cc(-c3cc(C)cc(C)c3)c(NC(=O)c3cc(OC)c(OC)c(OC)c3)cc2NC1=O            GI50      > 50 µM

What does the record list as GI50 for COc1cc(C(=O)Nc2cc3c(cc2Oc2cc(C)cc(C)c2)C(=O)N[C@@H](CC(=O)O)C(=O)N3)cc(OC)c1OC ?
> 50 µM
